- test.description: Plasma protein binding by equilibrium dialysis, human plasma
- Assay type: in vitro ADME
- conditions: pH 7.4, MBX-102 acid 2000 μM, equilibrium dialysis vs PBS, 37°C, read-out: %Protein Binding ± SD (converted)
measured.property: fraction unbound at 2000 µM
Reply: number alone, nothing else.

## Task Requested read-out: fraction unbound at 2000 µM. Entry: O=C(O)[C@H](Oc1cccc(C(F)(F)F)c1)c1ccc(Cl)cc1 (stereo in doubt)
## Result 0.002

----------
- test.description: Plasma protein binding by equilibrium dialysis, rat plasma
- Format: in vitro ADME, Sprague Dawley rats
- conditions: Sprague Dawley, pH 7.4, MBX-102 acid 600 μM, equilibrium dialysis vs PBS, 37°C, read-out: %Protein Binding ± SD (converted)
measured.property: fraction unbound at 600 µM
Reply: number alone, nothing else.

## Task Requested read-out: fraction unbound at 600 µM. Entry: O=C(O)[C@H](Oc1cccc(C(F)(F)F)c1)c1ccc(Cl)cc1 (stereo in doubt) [MBX-102 acid]
## Result 0.002
